molecular target: dopamine D2short receptor (Homo sapiens, UniProt P14416); experiment: [^35S]GTPγS-incorporation assay, intrinsic activity; conditions: read-out: D2short: [^35S]GTPγS intrinsic activity
Sequence (P14416 1-414 isoform P14416-2): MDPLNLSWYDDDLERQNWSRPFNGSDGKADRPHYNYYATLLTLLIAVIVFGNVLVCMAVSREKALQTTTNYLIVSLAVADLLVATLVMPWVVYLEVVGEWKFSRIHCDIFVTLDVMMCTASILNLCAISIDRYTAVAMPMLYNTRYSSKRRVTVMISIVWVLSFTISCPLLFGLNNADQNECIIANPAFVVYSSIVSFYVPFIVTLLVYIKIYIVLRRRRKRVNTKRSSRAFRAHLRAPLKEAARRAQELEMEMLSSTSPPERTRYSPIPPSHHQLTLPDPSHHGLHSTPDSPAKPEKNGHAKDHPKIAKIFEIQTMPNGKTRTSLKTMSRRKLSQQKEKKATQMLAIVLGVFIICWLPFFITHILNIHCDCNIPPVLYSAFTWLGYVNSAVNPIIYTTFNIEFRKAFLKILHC
quantity-measured: Emax

Some compounds with recorded Emax:
COc1ccccc1N1CCN(CCCCOc2nn3ccccc3c2C=O)CC1	15 to 40%
Clc1ccccc1N1CCN(CCCCOc2cccn3nccc23)CC1	< 15%
O=Cc1cnn2c(OCCCCN3CCN(c4cccc(Cl)c4Cl)CC3)cccc12	< 15%
Clc1cccc(N2CCN(CCCOCc3ccn4nccc4c3)CC2)c1Cl	< 15%
Clc1ccccc1N1CCN(CCCCOc2ccn3ncc(Br)c3c2)CC1	15 to 40%
Clc1ccccc1N1CCN(CCCCOc2cccc3ccnn23)CC1	15 to 40%

In: Fill in the recorded Emax for this compound, with dopamine D2short receptor (Homo sapiens, UniProt P14416) as test system: O=Cc1cnn2cccc(OCCCCN3CCN(c4cccc(Cl)c4Cl)CC3)c12
Out: 15 to 40%

In: Request: O=Cc1c(OCCCCN2CCN(c3ccccc3Cl)CC2)nn2ccccc12
Out: 15 to 40%

In: // repeat for O=Cc1cnn2cccc(OCCCCN3CCN(c4ccccc4Cl)CC3)c12 and report
Out: 15 to 40%

In: Try Clc1ccccc1N1CCN(CCCCOc2cc3ccccn3n2)CC1 next.
Out: < 15%

In: Similarly, O=Cc1cnn2c(OCCCCN3CCN(c4ccccc4Cl)CC3)cccc12 ?
Out: 15 to 40%
